Values from the supplement of paper PMC10065799

Molecular target: Fes (UniProt P07332)
Sequence (P07332 whole entry, looked up): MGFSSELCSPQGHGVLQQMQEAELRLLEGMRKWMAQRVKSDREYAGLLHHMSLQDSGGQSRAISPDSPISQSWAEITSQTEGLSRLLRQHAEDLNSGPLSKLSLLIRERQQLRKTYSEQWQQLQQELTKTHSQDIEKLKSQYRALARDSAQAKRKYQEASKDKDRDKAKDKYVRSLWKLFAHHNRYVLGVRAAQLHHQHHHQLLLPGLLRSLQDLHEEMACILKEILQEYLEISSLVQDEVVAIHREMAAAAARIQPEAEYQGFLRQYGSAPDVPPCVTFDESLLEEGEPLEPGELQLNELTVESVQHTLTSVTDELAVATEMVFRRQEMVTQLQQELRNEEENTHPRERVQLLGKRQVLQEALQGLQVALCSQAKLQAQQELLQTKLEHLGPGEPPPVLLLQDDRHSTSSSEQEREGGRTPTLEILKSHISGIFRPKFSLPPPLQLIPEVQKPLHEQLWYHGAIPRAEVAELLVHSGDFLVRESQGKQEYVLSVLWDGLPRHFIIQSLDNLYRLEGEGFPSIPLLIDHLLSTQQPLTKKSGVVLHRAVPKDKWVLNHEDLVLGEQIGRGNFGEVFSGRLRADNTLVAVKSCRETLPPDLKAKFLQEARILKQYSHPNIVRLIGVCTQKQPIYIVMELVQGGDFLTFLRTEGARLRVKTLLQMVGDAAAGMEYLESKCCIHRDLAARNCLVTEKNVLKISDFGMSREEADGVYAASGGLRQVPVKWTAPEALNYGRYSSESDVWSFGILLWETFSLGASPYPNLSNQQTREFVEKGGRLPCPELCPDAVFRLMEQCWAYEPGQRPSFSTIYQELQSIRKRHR
Test: phosphorylation enrichment, bacterial display (enrichment ratio); higher = better substrate or ligand; peptides without Tyr show the background;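 further: 11-residue human phosphosite peptides and single-mutation variants displayed on the E. coli surface, counted by deep sequencing, each peptide's frequency after selection divided by its frequency in the unselected input library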;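 further: frequency after pTyr selection over input frequency; kinase dosed for 20-30% of maximal phosphorylation in three min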
Exercise: for every item that follows, state its recorded phosphorylation enrichment.
Just the number.

Look up and report measured phosphorylation enrichment for this entry: EYFENYIEELK [PARP4_Y218] 1.4

Look up and report measured phosphorylation enrichment for this entry: IRTDAYVWAMT [RPE65_Y89_R91W] 1.11

Look up and report measured phosphorylation enrichment for this entry: `LANNEYFFRVC` 1.19

Look up and report measured phosphorylation enrichment for this entry: FPIDHYLGKEM [G6PD_Y202_R198P_YF] 0.903

Look up and report measured phosphorylation enrichment for this entry: SSRKEYFIGGG [GYPC_Y126] 0.673

Look up and report measured phosphorylation enrichment for this entry: RRGTGYTLSLP [MAGEC3_Y152] 0.812

Look up and report measured phosphorylation enrichment for this entry: RLLVVYPWTQG [HBG2_Y36_R41G] 0.932

Look up and report measured phosphorylation enrichment for this entry: SKAFAYVHFDS [PABPC5_Y149_G146A_YF] 1.36

Look up and report measured phosphorylation enrichment for this entry: SHSMRYFFTAV [HLA-C_Y31_D33F] 1.3

Look up and report measured phosphorylation enrichment for this entry: SSFDTYHLSRE [KIR3DL2_Y253_I252T_YF] 0.842

Look up and report measured phosphorylation enrichment for this entry: TKVVHYRKWIK [KLK2_Y249] 0.614

Look up and report measured phosphorylation enrichment for this entry: RFLRGYRQDAF [HLA-A_Y137_YF] 1.01

Look up and report measured phosphorylation enrichment for this entry: LITILYIGFLG [KCNQ1_Y267_T265I] 2.55

Look up and report measured phosphorylation enrichment for this entry: GQLIFYAPPEW [CNTN6_Y315] 1.18

Look up and report measured phosphorylation enrichment for this entry: FFHCTYKQRMI [CLEC12A_Y242_K244Q_YF] 1.28
